Tested on: ACHN
Assay: NCI tumour cell line growth inhibition, 48 h
Calls of active or inactive are those of the source. No stated cut-off is given here; in the data, active = GI50 up to about 1.1 µM and inactive = higher. Positions of bridges follow the written chain, without caps; N, C: chain ends. Non-standard residues stand in square brackets, D forms with d. Residues, ends and D or L forms follow the SMILES beside them. Aib = CC(C)(N)C(=O)O; βAla = NCCC(=O)O
Assay readout: GI50

Example results:
O=C1/C(=C/c2ccc([N+](=O)[O-])cc2)CNC/C1=C\c1ccc([N+](=O)[O-])cc1	12.3 µM (inactive)
Cc1cn(C2CC(O)C(Cn3cc(Cn4ncc(=O)[nH]c4=O)nn3)O2)c(=O)[nH]c1=O (centres undefined)	> 100 µM (inactive)
CN(C)c1ccc(-c2nc(-c3cc4c(ccc5ccccc54)oc3=O)cs2)cc1	> 100 µM (inactive)

Next item in the queue.
Input CC1(C)NC(=O)C(NC(=O)C(N)CC(=O)O)CCCCNC(=O)CCNC1=O (centres undefined) (H-DK[Aib][βAla]; lactam 2-C; configuration not given here) . Output GI50: > 100 µM (inactive)

###

Tested on: COLO 205
Assay: NCI tumour cell line growth inhibition, 48 h
The source made the active and inactive calls. Rule as the data show it: active = GI50 up to about 1.1 µM and inactive = higher.
Property: GI50; scope: individual compounds

Completed entries (count: 2):
Cc1ccc(S(=O)(=O)NCCCSCCO)cc1	18.3 µM (inactive)
CC#Cc1ccc(-c2ccccc2)s1	> 100 µM (inactive)

Recorded result, N#Cc1c(N2CCCC2)ncn(-c2ccccc2)c1=O , GI50: > 100 µM (inactive)

For COc1ccc(OC)c2c(=S)c3ccccc3[nH]c12 the compound record lists GI50 as 55.2 µM (inactive)

According to the records, this compound O=C1Nc2cc([N+](=O)[O-])ccc2C(=O)N2CCC[C@@H]12 displays GI50 of > 100 µM (inactive)

Reported GI50 for c1ccc(C2OCC(OC3CCCCO3)CO2)cc1 (centres undefined) was > 100 µM (inactive)

// sample CCCc1cc(COC)c(C#N)c(O)n1 , its GI50 was > 100 µM (inactive)

Lab note: Cc1cn(C2CC(O)C(Cn3nncc3Cn3nc(Br)c(=O)[nH]c3=O)O2)c(=O)[nH]c1=O (centres undefined) gave GI50 of > 100 µM (inactive)

Entry O=c1[nH]c(=O)n(C2CC(O)C(CO)O2)cc1Oc1ccccc1 (centres undefined) — recorded GI50 = > 100 µM (inactive)

Recorded result, COC(=O)CCC1(NS(=O)(=O)c2ccc(C)cc2)CCC(C(C)(C)C)CC1 (centres undefined) , GI50: 13.4 µM (inactive)

Data point: O=C1OC(c2ccccc2)=N/C1=C/NC(Cc1ccc(O)cc1)C(=O)O (centres undefined) ; GI50 = > 100 µM (inactive)

Entry under test: Cc1ncc(CSc2ccccc2N)c(CO)c1O . Its GI50 was > 100 µM (inactive)

# GI50 of O=C(O)c1cccc(OCCOc2cccc(C(=O)O)c2[N+](=O)[O-])c1[N+](=O)[O-] = > 100 µM (inactive)

Reported GI50 ( CCOC(=O)C1=C(C(=O)c2ccc(C)cc2)C(c2cccc([N+](=O)[O-])c2)C(C(=O)c2ccc(C)cc2)=C(C(=O)OCC)N1 ) = 1.95 µM (inactive)

###

The following compounds are listed with their measured GI50 values.
Test system: A549
Assay: NCI tumour cell line growth inhibition, 48 h
Activity calls are given as the source filed them. No stated cut-off is given here; in the data, active = GI50 up to about 1.1 µM and inactive = higher.

Examples with their reported GI50 follow.
CCCS(=O)(=O)/C(=C(\c1ccc(Br)cc1)S(=O)(=O)CCC)c1ccc(Br)cc1	> 10 µM (inactive)
CCOc1cc(/C=N/c2ccc(Oc3ccc(Cl)cc3)c(Cl)c2)ccc1O	30.1 µM (inactive)
Cn1c(N)cc(=O)nc1N	> 100 µM (inactive)
CC(C)(C)O/N=C/c1cc(NC(=S)c2ccccc2)ccc1Cl	15.7 µM (inactive)
COc1cc(C2SCC(=O)N2c2cccc(Cl)c2)cc(OC)c1OC (stereo unspecified)	> 100 µM (inactive)

Documented GI50 of COC(=O)C1C2C=CC(C2)N1[C@@H](C)c1ccccc1 (stereo partly specified) : > 100 µM (inactive)

GI50 for Cc1nnc2n1N=C(c1cc(F)c(Cl)cc1Cl)/C(=C/c1ccc(-c3ccc([N+](=O)[O-])cc3)o1)S2 is > 100 µM (inactive)

###

Test system: LXFL 529
Assay: NCI tumour cell line growth inhibition, 48 h
Active and inactive are the calls of the source. Rule as the data show it: active = GI50 up to about 1.1 µM and inactive = higher.
API: response.call in active, inactive

C#CC1(O)CC(c2ccccc2)N(C)C(c2ccccc2)C1 (stereo unspecified)	inactive

Tell me the assay call for c1ccc(C2CC(c3ccc4ccccc4c3)=Nc3ccccc3S2)cc1 (stereo unspecified) please.
inactive

Which outcome was assigned to CN(C)CC(C)(C)C(/C=C/c1ccccc1)=N\Nc1ccccc1 in this test?
active

Check the results log: what was the call for Cc1nc(N)nc(N)c1CCCc1ccccc1 ?
inactive

Call for entry CCO/N=C(/N)c1ncn(Cc2ccccc2)c1NCC(OCC)OCC :
inactive

Outcome? NCCNCCNCc1c2ccccc2c(CNCCNCCN)c2ccccc12
inactive

###

Tested on: OVCAR-4
Assay: NCI tumour cell line growth inhibition, 48 h
Calls of active or inactive are those of the source. Rule as the data show it: active = GI50 up to about 1.1 µM and inactive = higher.
Lab note: assign the record to one of true (1) = active, false (0) = inactive

Below, 8 molecules whose answers are already recorded.
CN(C)CC(C)(C)C(/C=C/c1ccccc1)=N\Nc1ccccc1	true (1)
COc1ccc(CCNC2=CC(=O)c3ncccc3C2=O)cc1OC	false (0)
CCN(CC)CCO/N=C1/C=C2CCC3C(CC[C@@]4(C)C3CC[C@]4(C)O)[C@@]2(C)CC1 (some centres undefined)	false (0)
O=C(Nc1cc(Cl)c(I)c(Cl)c1)C(F)(F)F	false (0)
CSc1ccc2c(cc1=O)C(NC(=O)c1cc(O)c(OC(=O)O)c(O)c1)CCc1cc(O)c(O)c(O)c1-2 (centres undefined)	false (0)
C[N+]1(C)C(c2ccccc2)C(=O)O[B@-]1(F)c1ccccc1 (some centres undefined)	false (0)
CC(C)C1CC(O)O[C@@H]([C@@H](C)[C@H]2CC(=O)[C@@H]3[C@@H]4[C@@H](O)[C@H](O)[C@H]5[C@@H](O)[C@H](O)CC[C@]5(C)[C@H]4CC[C@]23C)C1 (some centres undefined)	false (0)
CCOC(=O)CCN1C(=O)C(=O)N(c2ccc(OC)cc2)C1=S	false (0)

Field: next molecule
Tell me the recorded outcome of this test for O=C(O)C(Cc1ccccc1)N1C(=O)N/C(=C\c2ccc(F)cc2)C1=O (centres undefined) .
false (0)

###

Measured GI50, listed per entry for reference.
System: SNB-19
Assay: NCI tumour cell line growth inhibition, 48 h
The source made the active and inactive calls. Rule as the data show it: active = GI50 up to about 1.1 µM and inactive = higher.

COc1ccc(C2c3cc4c(cc3OC3(OC)COC(=O)C23)OCO4)c(OC)c1 (stereo unspecified)	14.2 µM (inactive)

COC(=O)c1cc(S(=O)(=O)NC2=NNC(C)CN2)c(S)cc1Cl (stereo unspecified) yielded GI50 of 85.1 µM (inactive)

###

Quick list: GI50 per entry.
Test system: UACC-257
Assay: NCI tumour cell line growth inhibition, 48 h
Active and inactive are the calls of the source. No stated cut-off is given here; in the data, active = GI50 up to about 1.1 µM and inactive = higher.

Worked examples follow.
Cc1cc(C)nc(NS(=O)(=O)c2ccc(NC(=O)c3cccc4c(Nc5ccc(S(=O)(=O)Nc6nc(C)cc(C)n6)cc5)c5ccccc5nc34)cc2)n1	23 µM (inactive)
Cc1ccc(S(=O)(=O)N/N=c2\c(C)c(C3=NS(=O)(=O)c4cc(S(N)(=O)=O)c(Cl)cc4N3)oc3c(Cl)cc(Cl)cc23)cc1	> 100 µM (inactive)
NNc1cnn(-c2ccccc2)c(=O)c1Cl	> 100 µM (inactive)
CC(C(=O)O)/C(=C\c1ccc2c(c1)OCO2)C(=O)O (stereo not given)	> 100 µM (inactive)
CCOC(=O)c1cccc(/N=N/c2ncc(/C=C/C(=O)OC)[nH]2)c1	16.2 µM (inactive)

Kindly note the recorded GI50 for COC(=O)c1ccccc1C1CN=NC12Cc1cccc(C)c1C2=O (stereo not given) , which is 37.3 µM (inactive)

Consider CCC(C=O)P1(=O)OC(C)(C)CN1C(C)(C)C (stereo not given) . Its measured GI50 is > 100 µM (inactive)

The compound listed as Fc1ccc(/N=C2C=C/C(=N\c3ccc(F)cc3)c3ccccc3\2)cc1 has a reported GI50 of > 100 µM (inactive)

Sample COc1cc(C2c3cc4c(cc3[C@@H](Nc3ccc5c(c3)OCCO5)C3COC(=O)[C@H]23)OCO4)cc(OC)c1O (stereo not given in full) ; GI50 observed: 2.57 µM (inactive)

Value of measured GI50 for the entry Oc1ccc(-c2ccccc2)nn1 : > 100 µM (inactive)

###

Tested on: MDA-MB-435
Assay: NCI tumour cell line growth inhibition, 48 h
Activity calls are given as the source filed them. Rule as the data show it: active = GI50 up to about 1.1 µM and inactive = higher.
Assay readout: GI50

Measured GI50 (MDA-MB-435), entry O=C([O-])C(O)C(O)C(O)C(O)C(=O)O.[K+] (stereo unspecified) : > 100 µM (inactive)

# lookup: COc1nc2c(c(=O)n1C)N(C(C)=O)C1C(N2)OCC(OC(C)=O)C1OC(C)=O (stereo unspecified) on MDA-MB-435, GI50 = > 10 µM (inactive)

Item: Cn1c(=O)c2[nH]c(N=O)nc2n(C)c1=O | System: MDA-MB-435 | GI50: > 100 µM (inactive)
